Listing of recorded growth inhibition by entry.
# Test details: NCI Yeast Anticancer Drug Screen. Data for the wt2 strain (AID 169);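 note: 0% = growth of vehicle-treated yeast cultures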
# Measurement context: S. cerevisiae wt2 strain growth inhibition; at 1.2 µM; hits give high values
This is part of a sample that, as a whole, favours compounds with a hit. Of some 79,000 tested, about 15% had one in any assay.
Observation type: growth inhibition (%)

- O=C1SS(=O)c2ccccc21 (stereo unspecified): 7
- COc1cccc(C(NC2=NCCC=N2)c2cc3c(cc2O)OCO3)c1O (stereo unspecified): 0
- Oc1c2c(c(O)c3ccccc13)C1(N=N2)c2ccccc2Oc2ccccc21: 4
- CC1=CC(C)(C)SC(SSSC2=NC(C)=CC(C)(C)S2)=N1: -5
- N#CCC(=O)N/N=C(\c1ccccc1)C(c1ccccc1)C1(O)C(=O)Nc2c(Cl)ccc(Cl)c21 (stereo unspecified): 0
- NC(=O)NC1C(c2ccccc2)=C1c1ccccc1: 13

Where do the numbers come from? From PubChem BioAssay (NCI).
